The values you see were collected from patent US20220040297A1.

We begin with a simple list: items and their reported ratio of amounts bound vs CE115HA000.
STUDY_TARGET: CD3ε homodimer protein (human) (UniProt P07766)
Sequence (P07766 23-126 limits assumed): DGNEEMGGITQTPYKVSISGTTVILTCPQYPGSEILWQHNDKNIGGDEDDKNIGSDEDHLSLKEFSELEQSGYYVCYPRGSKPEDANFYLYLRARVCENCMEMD
ASSAY_NOTES: SPR, CD3ε homodimer on chip

// returns reported ratio of amounts bound vs CE115HA000 for input CE115HA000 Y97R (antibody, name in Kabat numbering, V domains shown) VH: QVQLVESGGGVVQPGRSLRLSCAASGFTFSNAWMHWVRQAPGKGLEWVAQIKAKSNNYATYYAESVKGRFTISRDDSKNSLYLQMNSLKTEDTAVYYCRYVHRGAYYGVDAWGQGTTVTVSS VL: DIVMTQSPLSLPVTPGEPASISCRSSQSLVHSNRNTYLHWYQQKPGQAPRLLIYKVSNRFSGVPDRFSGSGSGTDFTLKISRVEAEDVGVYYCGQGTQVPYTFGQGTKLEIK
9.27

// returns reported ratio of amounts bound vs CE115HA000 for input CE115HA000 V95E (antibody, name in Kabat numbering, V domains shown) VH: QVQLVESGGGVVQPGRSLRLSCAASGFTFSNAWMHWVRQAPGKGLEWVAQIKAKSNNYATYYAESVKGRFTISRDDSKNSLYLQMNSLKTEDTAVYYCRYEHYGAYYGVDAWGQGTTVTVSS VL: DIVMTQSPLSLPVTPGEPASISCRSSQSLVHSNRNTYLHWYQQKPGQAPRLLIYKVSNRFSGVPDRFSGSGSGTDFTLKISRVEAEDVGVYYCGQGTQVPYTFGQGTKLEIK
9.24

// returns reported ratio of amounts bound vs CE115HA000 for input CE115HA000 D101R (antibody, name in Kabat numbering, V domains shown) VH: QVQLVESGGGVVQPGRSLRLSCAASGFTFSNAWMHWVRQAPGKGLEWVAQIKAKSNNYATYYAESVKGRFTISRDDSKNSLYLQMNSLKTEDTAVYYCRYVHYGAYYGVRAWGQGTTVTVSS VL: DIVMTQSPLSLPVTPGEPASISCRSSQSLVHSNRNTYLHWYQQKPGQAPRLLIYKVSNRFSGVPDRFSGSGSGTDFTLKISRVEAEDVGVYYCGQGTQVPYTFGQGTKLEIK
9.24

We next turn to a different binder, shown below.
// returns reported ratio of amounts bound vs CE115HA000 for input CE115HA000 Y97S (antibody, name in Kabat numbering, V domains shown) VH: QVQLVESGGGVVQPGRSLRLSCAASGFTFSNAWMHWVRQAPGKGLEWVAQIKAKSNNYATYYAESVKGRFTISRDDSKNSLYLQMNSLKTEDTAVYYCRYVHSGAYYGVDAWGQGTTVTVSS VL: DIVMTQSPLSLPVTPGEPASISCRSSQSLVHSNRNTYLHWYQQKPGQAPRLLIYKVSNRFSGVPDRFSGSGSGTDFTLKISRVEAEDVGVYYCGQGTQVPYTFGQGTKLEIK
9.28
